Cited source for all entries: paper PMC9851200

- Tested on: TFEB or TFE3
- Protocol Details: EC50 line in the head of Table S5 (cellular activity of the analogs, assay not given)
- Type: cell-based
- Conditions Used: assay not named, unit printed only in the first two cells
We begin with a simple list: items and their reported EC50.
Express the result in nM but write the number alone.

Worked examples, 2 molecules total:
>>> reading("Cc1cccc(-c2nc(N(C)c3ccc4ncsc4c3)c3ccccc3n2)n1")
1100
>>> reading("Cc1cccc(-c2nc(Nc3ccc4nn(C)cc4c3)c3ccccc3n2)n1")
1000

Exam item: Bench note: what EC50 did Cc1cccc(-c2nc(Nc3ccc4ncsc4c3)c3ccccc3n2)n1 show?
Marked response: 650
